Recorded values, source ChEMBL document CHEMBL1201862.

- Test system: HCC 2998
- EXPERIMENTAL DETAILS: NCI tumour cell line growth inhibition, 48 h
Calls of active or inactive are those of the source. No stated cut-off is given here; in the data, active = GI50 up to about 1.1 µM and inactive = higher.
# GI50 listing for each entry below

• NC(=S)N/N=C1\CCCCc2ccccc21 = > 10 µM (inactive)

What measured GI50 is associated with CCOC(=O)C(C)OC(=O)c1ccc(C)cc1 (stereo not given) on HCC 2998?
> 100 µM (inactive)

What measured GI50 is associated with OCCCNCC(O)c1ccc(OCc2ccccc2)c(OCc2ccccc2)c1 (stereo not given) on HCC 2998?
5.3 µM (inactive)

What measured GI50 is associated with CN[C@H]1CC[C@]23C[C@]24CC[C@]2(C)[C@@H]([C@H](C)N(C)C)CC[C@@]2(C)[C@@H]4CC[C@H]3C1(C)C on HCC 2998?
13.4 µM (inactive)

What measured GI50 is associated with COc1cc(C2=N/C(=C/c3cccs3)C(=O)O2)cc(OC)c1OC on HCC 2998?
> 100 µM (inactive)
